- Assay method text: Half life in BALB/c mouse at 50 mg/kg,po measured upto 24 hrs by HPLC-MS/MS analysis
- Assay type: ADME, organism-based
- Run parameters: in vivo
Experimental endpoint: half-life (h)
I only need the number, in h, no unit after it.

Query: # half-life lookup, item CCN(c1cc(-c2ccc([C@@H]3C[C@H]3N(CC3CCOCC3)C(=O)OC(C)(C)C)cc2)cc(C(=O)NCc2c(C)cc(C)[nH]c2=O)c1C)C1CCOCC1 (racemic)
Result: 3.5

* * *

- Assay method text: Tmax in BALB/c mouse at 50 mg/kg,ip measured upto 24 hrs by HPLC-MS/MS analysis
- Type: ADME, organism-based
- Run parameters: in vivo
Experimental endpoint: Tmax (h)
I only need the number, in h, no unit after it.

Query: # Tmax lookup, item CCN(c1cc(-c2ccc([C@@H]3C[C@H]3N(CC3CCOCC3)C(=O)OC(C)(C)C)cc2)cc(C(=O)NCc2c(C)cc(C)[nH]c2=O)c1C)C1CCOCC1 (racemic)
Result: 2
